Source: ChEMBL document CHEMBL3797037

Biological target: Carbonic anhydrase 7 (Homo sapiens, UniProt P43166)
Sequence (P43166 whole entry): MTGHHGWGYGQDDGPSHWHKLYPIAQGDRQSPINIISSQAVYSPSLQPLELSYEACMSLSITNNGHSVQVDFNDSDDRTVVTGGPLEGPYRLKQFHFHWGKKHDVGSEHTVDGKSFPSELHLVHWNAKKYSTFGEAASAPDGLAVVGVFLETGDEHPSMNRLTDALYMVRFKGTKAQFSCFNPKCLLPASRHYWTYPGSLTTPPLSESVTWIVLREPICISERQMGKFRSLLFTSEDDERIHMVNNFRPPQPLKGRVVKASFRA
Test: Binding affinity to human recombinant CA7 assessed as dissociation rate constant after 30 secs by surface plasmon resonance assay
Classification field: rule met = koff (dissociation rate constant) at or over 6 ×10⁻² /s; rule not met = koff (dissociation rate constant) under 6 ×10⁻² /s.

[in] Answer whether koff (dissociation rate constant) of `CCCSc1c(F)c(F)c(S(N)(=O)=O)c(NC2CCCCCCC2)c1F` is greater than or equal to 6 ×10⁻² /s.
[out] rule not met

[in] Answer whether koff (dissociation rate constant) of `NS(=O)(=O)c1c(F)c(F)c(N2CCCCC2)c(F)c1F` is greater than or equal to 6 ×10⁻² /s.
[out] rule met

[in] Answer whether koff (dissociation rate constant) of `NS(=O)(=O)c1ccc(C(=O)Cn2cnc3ccccc32)cc1Cl` is greater than or equal to 6 ×10⁻² /s.
[out] rule not met

[in] Answer whether koff (dissociation rate constant) of `CNc1c(F)c(S(N)(=O)=O)c(F)c(F)c1S(=O)(=O)CCc1ccccc1` is greater than or equal to 6 ×10⁻² /s.
[out] rule not met

* * *

Molecular target: UniProt P00918
Test: Binding affinity to human recombinant CA2 expressed in Escherichia coli by fluorescence-based thermal shift assay
Give pKd for every item shown.
pKd (log units): -log10 of the concentration in mol/L.

[in] # get_value(readout='pKd', item= `CCCSc1c(F)c(F)c(S(N)(=O)=O)c(NC2CCCCCCC2)c1F` )
[out] 6.35

[in] # get_value(readout='pKd', item= `COc1ccc(CNc2c(F)c(F)c(F)c(F)c2S(N)(=O)=O)cc1` )
[out] 7.11

[in] # get_value(readout='pKd', item= `CNc1c(F)c(S(N)(=O)=O)c(F)c(F)c1S(=O)(=O)CCc1ccccc1` )
[out] 8.62

[in] # get_value(readout='pKd', item= `NS(=O)(=O)c1cccc(C(=O)Cn2cnc3ccccc32)c1` )
[out] 5.77

[in] # get_value(readout='pKd', item= `NS(=O)(=O)c1cc(C(=O)Cn2c(Cc3ccccc3)nc3ccccc32)ccc1Cl` )
[out] 6.17

[in] # get_value(readout='pKd', item= `CCCS(=O)(=O)c1c(F)c(F)c(S(N)(=O)=O)c(F)c1NC1CCCCCCC1` )
[out] 7.70

[in] # get_value(readout='pKd', item= `NS(=O)(=O)c1c(F)c(F)c(N2CCCCC2)c(F)c1F` )
[out] 8.35

[in] # get_value(readout='pKd', item= `CC(C)(C)Nc1c(F)c(S(N)(=O)=O)c(F)c(F)c1S(=O)(=O)CCc1ccccc1` )
[out] 9.23

[in] # get_value(readout='pKd', item= `NS(=O)(=O)c1ccc(C(=O)Cn2cnc3ccccc32)cc1` )
[out] 8.82

* * *

Give Dissociation rate constant (koff) for every item shown.
Target: UniProt:P00918
Experiment: Binding affinity to human recombinant CA2 expressed in Escherichia coli assessed as dissociation rate constant after 30 secs by surface plasmon resonance assay

[in] # get_value(readout='Dissociation rate constant (koff)', item= `CNc1c(F)c(S(N)(=O)=O)c(F)c(F)c1S(=O)(=O)CCc1ccccc1` )
[out] 8.2 ×10⁻³ /s

[in] # get_value(readout='Dissociation rate constant (koff)', item= `COc1ccc(CNc2c(F)c(F)c(F)c(F)c2S(N)(=O)=O)cc1` )
[out] 2.6 ×10⁻² /s

[in] # get_value(readout='Dissociation rate constant (koff)', item= `NS(=O)(=O)c1cc(C(=O)Cn2c(Cc3ccccc3)nc3ccccc32)ccc1Cl` )
[out] 1.3 ×10⁻¹ /s

[in] # get_value(readout='Dissociation rate constant (koff)', item= `NS(=O)(=O)c1c(F)c(F)c(N2CCCCC2)c(F)c1F` )
[out] 9.3 ×10⁻³ /s

[in] # get_value(readout='Dissociation rate constant (koff)', item= `NS(=O)(=O)c1cccc(C(=O)Cn2cnc3ccccc32)c1` )
[out] 6.2 ×10⁻¹ /s

* * *

Give Kd for every item shown.
Biological target: Carbonic anhydrase 9 (Homo sapiens)
Assay: Binding affinity to human recombinant CA9 catalytic domain assessed as dissociation constant calculated from saturation signal at pH 7 by surface plasmon resonance assay
# output: bare number, implied unit nM

[in] # get_value(readout='Kd', item= `NS(=O)(=O)c1ccc(C(=O)CSc2ncccn2)cc1` )
[out] 80

[in] # get_value(readout='Kd', item= `NS(=O)(=O)c1ccc(C(=O)CSc2ncccn2)cc1Cl` )
[out] 260

[in] # get_value(readout='Kd', item= `CC(C)(C)c1cc(=O)[nH]c(SCC(=O)c2ccc(S(N)(=O)=O)cc2)n1` )
[out] 56

* * *

Give koff (dissociation rate constant) for every item shown.
Target: Carbonic anhydrase 9 (Homo sapiens)
Test: Binding affinity to human recombinant CA9 catalytic domain assessed as dissociation rate constant after 30 secs by surface plasmon resonance assay
# output: bare number, implied unit ×10⁻¹ /s

[in] # get_value(readout='koff (dissociation rate constant)', item= `COc1ccc(CNc2c(F)c(F)c(F)c(F)c2S(N)(=O)=O)cc1` )
[out] 2.6

[in] # get_value(readout='koff (dissociation rate constant)', item= `CCCSc1c(F)c(F)c(S(N)(=O)=O)c(F)c1F` )
[out] 1.1

[in] # get_value(readout='koff (dissociation rate constant)', item= `NS(=O)(=O)c1cccc(C(=O)Cn2cnc3ccccc32)c1` )
[out] 3.1

[in] # get_value(readout='koff (dissociation rate constant)', item= `CNc1c(F)c(S(N)(=O)=O)c(F)c(F)c1S(=O)(=O)CCc1ccccc1` )
[out] 1

[in] # get_value(readout='koff (dissociation rate constant)', item= `NS(=O)(=O)c1c(F)c(F)c(N2CCCCC2)c(F)c1F` )
[out] 1.5

[in] # get_value(readout='koff (dissociation rate constant)', item= `NS(=O)(=O)c1ccc(C(=O)Cn2cnc3ccccc32)cc1Cl` )
[out] 1.4

[in] # get_value(readout='koff (dissociation rate constant)', item= `NS(=O)(=O)c1ccc(C(=O)CSc2ncccn2)cc1Cl` )
[out] 2.6

[in] # get_value(readout='koff (dissociation rate constant)', item= `NS(=O)(=O)c1ccc(C(=O)CSc2ncccn2)cc1` )
[out] 2.1

[in] # get_value(readout='koff (dissociation rate constant)', item= `NS(=O)(=O)c1cc(C(=O)CSc2ncccn2)ccc1Cl` )
[out] 4

* * *

Biological target: Carbonic anhydrase 9 (Homo sapiens, UniProt Q16790)
Experiment: Binding affinity to human recombinant CA9 catalytic domain assessed as association rate constant after 30 secs by surface plasmon resonance assay
So basically: is K under 2 ×10⁶ /M/s? Then YES. Not under? Then NO.

[in] Check if K falls below 2 ×10⁶ /M/s for `CNc1c(F)c(S(N)(=O)=O)c(F)c(F)c1S(=O)(=O)CCc1ccccc1` .
[out] NO

[in] Check if K falls below 2 ×10⁶ /M/s for `NS(=O)(=O)c1cccc(C(=O)Cn2cnc3ccccc32)c1` .
[out] YES

[in] Check if K falls below 2 ×10⁶ /M/s for `NS(=O)(=O)c1ccc(C(=O)Cn2cnc3ccccc32)cc1` .
[out] YES

[in] Check if K falls below 2 ×10⁶ /M/s for `NS(=O)(=O)c1ccc(C(=O)CSc2ncccn2)cc1Cl` .
[out] YES

[in] Check if K falls below 2 ×10⁶ /M/s for `COc1ccc(CNc2c(F)c(F)c(F)c(F)c2S(N)(=O)=O)cc1` .
[out] YES

[in] Check if K falls below 2 ×10⁶ /M/s for `NS(=O)(=O)c1cc(C(=O)Cn2cnc3ccccc32)ccc1Cl` .
[out] YES

[in] Check if K falls below 2 ×10⁶ /M/s for `NS(=O)(=O)c1ccc(C(=O)Cn2cnc3ccccc32)cc1Cl` .
[out] NO

* * *

Give Kd for every item shown.
Biological target: Carbonic anhydrase 9 (Homo sapiens, UniProt Q16790)
Experiment: Binding affinity to human recombinant CA9 catalytic domain assessed as dissociation constant calculated from saturation signal at pH 8 by surface plasmon resonance assay
# output: bare number, implied unit nM

[in] # get_value(readout='Kd', item= `NS(=O)(=O)c1ccc(C(=O)CSc2ncccn2)cc1Cl` )
[out] 190

[in] # get_value(readout='Kd', item= `CC(C)(C)c1cc(=O)[nH]c(SCC(=O)c2ccc(S(N)(=O)=O)cc2)n1` )
[out] 20

[in] # get_value(readout='Kd', item= `NS(=O)(=O)c1ccc(C(=O)CSc2ncccn2)cc1` )
[out] 110

* * *

Give pKd for every item shown.
Target: Carbonic anhydrase 1 (Homo sapiens)
Sequence (P00915 whole entry): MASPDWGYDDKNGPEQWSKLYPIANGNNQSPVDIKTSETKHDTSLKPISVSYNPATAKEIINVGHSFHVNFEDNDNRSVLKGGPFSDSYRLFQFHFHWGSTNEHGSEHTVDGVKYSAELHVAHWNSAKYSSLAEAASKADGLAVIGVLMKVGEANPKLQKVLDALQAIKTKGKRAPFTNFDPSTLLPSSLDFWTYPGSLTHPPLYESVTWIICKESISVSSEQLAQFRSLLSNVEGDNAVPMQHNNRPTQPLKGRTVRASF
Assay: Binding affinity to human recombinant CA1 expressed in Escherichia coli after 30 secs by surface plasmon resonance assay
pKd (log units): -log10 of the concentration in mol/L.

[in] # get_value(readout='pKd', item= `CNc1c(F)c(S(N)(=O)=O)c(F)c(F)c1S(=O)(=O)CCc1ccccc1` )
[out] 7.60

[in] # get_value(readout='pKd', item= `COc1ccc(CNc2c(F)c(F)c(F)c(F)c2S(N)(=O)=O)cc1` )
[out] 7.21
